What pEC50 was measured for each of the following?
molecular target: human CYP11B1 (Homo sapiens); assay: G-402 cellular enzyme assay, human CYP11B1 (cortisol release, HTRF); conditions: G-402 cells, 1 μM Deoxycortisol
Scale note: pEC50 = -log10(concentration in M).

[in] State the recorded pEC50 for this entry: Cn1ccnc1C(O)c1cncc(N2CCc3cc(Cl)ccc3C2=O)c1 (centres unmarked) [Example 30]
[out] 5.68

[in] pEC50 lookup needed for CCC(=O)NCc1cncc(N2C(=O)c3ccc(F)cc3C2(C)C)c1 [Example 398] , thanks.
[out] 5.64

[in] Consider the molecule shown here: COc1cncc(N2CCc3c(ccc(Cl)c3F)C2=O)c1 [Example 99] What is its recorded pEC50?
[out] 5.14

[in] Give the measured pEC50 of CC[C@H]1c2cc(Cl)ccc2C(=O)N1c1cncc2c1CC[C@H]2NC(C)=O (single isomer, unassigned) [Example 343] .
[out] 5.33

[in] Bench note: what pEC50 did Cc1cnn(C)c1-c1cncc(N2CCc3cc(Cl)ccc3C2=O)c1 [Example 245] show?
[out] 7.59

----------
Hi there, I'd appreciate the recorded pEC50 for every entry that follows.
Biological target: human CYP11B1 (Homo sapiens)
Sequence (P15538 25-503): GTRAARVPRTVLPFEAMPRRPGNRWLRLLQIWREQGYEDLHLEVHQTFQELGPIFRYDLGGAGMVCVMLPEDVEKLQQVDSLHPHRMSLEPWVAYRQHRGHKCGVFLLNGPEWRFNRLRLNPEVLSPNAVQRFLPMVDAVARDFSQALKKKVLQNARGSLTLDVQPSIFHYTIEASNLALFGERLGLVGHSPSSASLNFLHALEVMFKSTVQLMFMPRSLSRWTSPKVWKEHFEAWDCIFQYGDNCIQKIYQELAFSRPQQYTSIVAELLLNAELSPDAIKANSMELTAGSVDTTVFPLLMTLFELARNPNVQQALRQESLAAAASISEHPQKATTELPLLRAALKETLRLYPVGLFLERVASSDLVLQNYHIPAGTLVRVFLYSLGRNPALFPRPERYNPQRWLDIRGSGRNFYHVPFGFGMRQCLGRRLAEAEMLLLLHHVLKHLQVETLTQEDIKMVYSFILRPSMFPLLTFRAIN
Assay: G-402 cellular enzyme assay, human CYP11B1 (cortisol release, HTRF)
Details: G-402 cells, 1 μM Deoxycortisol
Note: pEC50 values are expressed as the negative base-10 logarithm of concentration in M.

[in] Query (compound): COc1cncc(N2CC(C)(C)c3cc(Cl)ccc3C2=O)c1 [Example 103] ; field requested: pEC50
[out] 4.96

[in] Which pEC50 value is on record for CC(C)(O)c1c(F)cncc1N1CCc2cc(Cl)ccc2C1=O [Example 70] ?
[out] 6.41

[in] Name the reported pEC50 value associated with the compound O=C1c2ccc(Cl)cc2CCN1c1cncc(CN2CC3(COC3)C2)c1 [Example 171]
[out] 7.05

[in] Requested field: pEC50. Item: CC(C)S(=O)(=O)NCc1cncc(N2CCc3cc(Cl)ccc3C2=O)c1 [Example 145]
[out] 5.72

[in] I have this compound here, O=C1c2ccc(Cl)cc2CCN1c1cncc(C(O)C2CC2)c1 (centres unmarked) [Example 20] , and I need its recorded pEC50.
[out] 5.98

----------
biological target: human CYP11B1 (Homo sapiens); test: G-402 cellular enzyme assay, human CYP11B1 (cortisol release, HTRF); settings: G-402 cells, 1 μM Deoxycortisol
Provide the recorded EC50 for the entries that follow.
Respond numerically; units are nM and should not be typed.

[in] Fill in: EC50 of CCC(=O)N[C@@H]1CCCc2c1cncc2N1C(=O)c2cc(Cl)ccc2[C@@H]1CC (single isomer, unassigned) is ___
[out] 3540

[in] // returns reported EC50 for input CC[C@H]1c2cc(Cl)ccc2C(=O)N1c1cncc2c1CCC[C@H]2NS(C)(=O)=O (single isomer, unassigned)
[out] 3680

[in] Look up EC50 for this molecule: `O=C1c2ccc(Cl)cc2CCN1c1cncc(CN2CCC(F)(F)C2)c1`
[out] 38.1

[in] Suppose we examine the molecule `O=C1c2ccc(Cl)cc2CCN1c1cncc(-c2ccccc2C(F)(F)F)c1` ; what EC50 value has been reported?
[out] 206

Sourced from patent US9133158B2
